Assay: Dynamic solubility of Form II in mixed solvents, dissolution observed visually
Format: physicochemical
Details: organic solvent or mixture, thermodynamic from solid; MeOH/water/MTBE (9/1/10); 0° C.
READOUT NAME: solubility

Q: # return recorded solubility for input CC(=O)N1CCC(COc2cc(F)c3c(=O)[nH]c(CSC4CCOCC4)nc3c2)CC1 [Form II]
A: > 4500 µg/mL

----------
Assay: Dynamic solubility of Form II in mixed solvents, dissolution observed visually
Assay type: physicochemical
Conditions: volume ratio 1/2, organic solvent or mixture, thermodynamic from solid; Ethyl formate/Acetone, volume ratio ½; RT; read-out: Solubility
READOUT NAME: solubility at 30 min

Q: # return recorded solubility at 30 min for input CC(=O)N1CCC(COc2cc(F)c3c(=O)[nH]c(CSC4CCOCC4)nc3c2)CC1 [Form II]
A: < 2000 µg/mL
